Target: NaV1.8 (Homo sapiens, UniProt Q9Y5Y9)
Sequence (Q9Y5Y9 whole entry): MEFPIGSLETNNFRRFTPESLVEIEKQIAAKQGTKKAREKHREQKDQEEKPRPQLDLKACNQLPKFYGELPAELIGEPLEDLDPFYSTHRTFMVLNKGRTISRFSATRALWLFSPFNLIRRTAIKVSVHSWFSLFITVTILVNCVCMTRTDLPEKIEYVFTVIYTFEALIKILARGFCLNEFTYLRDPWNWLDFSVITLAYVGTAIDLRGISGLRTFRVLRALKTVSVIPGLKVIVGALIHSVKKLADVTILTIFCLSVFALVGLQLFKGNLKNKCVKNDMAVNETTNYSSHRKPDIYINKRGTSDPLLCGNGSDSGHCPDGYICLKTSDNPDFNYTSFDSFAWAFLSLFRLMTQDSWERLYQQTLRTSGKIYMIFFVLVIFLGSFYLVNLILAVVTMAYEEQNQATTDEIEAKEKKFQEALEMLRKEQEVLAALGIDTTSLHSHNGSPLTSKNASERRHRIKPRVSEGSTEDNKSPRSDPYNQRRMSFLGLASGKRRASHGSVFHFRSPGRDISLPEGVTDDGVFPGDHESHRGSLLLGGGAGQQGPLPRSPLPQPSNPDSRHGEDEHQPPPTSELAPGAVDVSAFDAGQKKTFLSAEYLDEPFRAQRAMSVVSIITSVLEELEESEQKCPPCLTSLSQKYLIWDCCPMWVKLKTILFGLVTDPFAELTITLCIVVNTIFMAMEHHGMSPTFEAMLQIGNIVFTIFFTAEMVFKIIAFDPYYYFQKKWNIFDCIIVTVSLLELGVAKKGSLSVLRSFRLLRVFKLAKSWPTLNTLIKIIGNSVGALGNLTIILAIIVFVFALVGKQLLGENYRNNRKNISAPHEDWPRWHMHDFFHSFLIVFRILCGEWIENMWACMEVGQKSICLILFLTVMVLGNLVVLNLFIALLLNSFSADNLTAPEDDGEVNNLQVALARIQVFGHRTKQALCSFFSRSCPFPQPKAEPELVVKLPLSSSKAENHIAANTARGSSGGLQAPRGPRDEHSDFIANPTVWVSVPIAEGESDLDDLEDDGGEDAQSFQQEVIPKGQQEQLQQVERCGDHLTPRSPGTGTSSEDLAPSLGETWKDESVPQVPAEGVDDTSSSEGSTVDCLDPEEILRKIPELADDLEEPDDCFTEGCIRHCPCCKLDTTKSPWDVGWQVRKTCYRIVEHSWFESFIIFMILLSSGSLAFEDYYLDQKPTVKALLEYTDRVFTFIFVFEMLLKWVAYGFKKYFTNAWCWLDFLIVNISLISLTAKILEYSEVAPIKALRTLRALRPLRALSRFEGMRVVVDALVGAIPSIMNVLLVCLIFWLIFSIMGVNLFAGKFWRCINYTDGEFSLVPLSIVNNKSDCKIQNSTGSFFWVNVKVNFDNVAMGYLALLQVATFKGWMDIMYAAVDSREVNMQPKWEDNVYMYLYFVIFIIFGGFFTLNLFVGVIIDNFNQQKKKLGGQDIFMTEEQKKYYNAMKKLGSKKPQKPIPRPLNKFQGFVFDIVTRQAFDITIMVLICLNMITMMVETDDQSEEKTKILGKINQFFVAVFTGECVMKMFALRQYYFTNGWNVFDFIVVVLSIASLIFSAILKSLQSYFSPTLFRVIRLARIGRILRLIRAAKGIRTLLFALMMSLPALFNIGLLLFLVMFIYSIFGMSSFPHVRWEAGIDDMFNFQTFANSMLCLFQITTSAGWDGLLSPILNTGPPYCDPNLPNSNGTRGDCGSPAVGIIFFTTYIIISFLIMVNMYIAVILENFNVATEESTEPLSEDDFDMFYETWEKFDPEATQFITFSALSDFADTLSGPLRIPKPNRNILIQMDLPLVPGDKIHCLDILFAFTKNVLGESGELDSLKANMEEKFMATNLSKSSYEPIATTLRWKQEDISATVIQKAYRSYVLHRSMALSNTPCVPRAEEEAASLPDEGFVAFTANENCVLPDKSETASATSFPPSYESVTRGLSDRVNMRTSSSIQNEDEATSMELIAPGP
Assay: VIPR optical membrane potential assay, NaV1.8 (other subtypes in an analogous mode)
Format: cell-based
Details: Table 9, NaV 1.8 receptors
pIC50: −log10 of the molar value.
Entries and their pIC50 values follow.

Compound	pIC50
O=C(c1cnc(N2CCC3CCCCC3C2)nc1-c1ccccc1F)N(Cc1cccc(-c2ccncc2)c1)C1CC1 (centres unmarked)	< 5.00
CC(C)N(Cc1ccccc1)C(=O)c1cnc(NCCc2cccc(C(F)(F)F)c2)nc1-c1ccccc1F	< 5.00
O=C(NC(CN1CCCC1)c1ccccc1)c1cnc(N2CCOCC2)nc1-c1ccccc1F (centres unmarked)	< 5.00
CC(C)N(Cc1ccccc1)C(=O)c1cnc(N2CCC(O)C2)nc1-c1ccccc1F (centres unmarked)	< 5.00

Summary for this compound, Cc1nc(N2CCCCC2)nc(-c2ccccc2F)c1C(=O)N(Cc1ccc2c(c1)CCO2)C1CC1 : pIC50 is < 5.00

Summary for this compound, CC(C)N(C(=O)c1cnc(N2CCOCC2)nc1-c1ccccc1F)c1ccc2c(c1)OCO2 : pIC50 is < 5.00

Summary for this compound, CC(C)N(Cc1ccccc1)C(=O)c1cnc(N2CCCCC2)nc1-c1ccccc1Cl : pIC50 is 5.00 to 5.70

Summary for this compound, Cc1ccc(Nc2ncc(C(=O)N(Cc3ccccc3)C(C)C)c(-c3ccccc3F)n2)cc1 : pIC50 is < 5.00

* * *

Entries and their IC50 values follow.
Biological target: NaV1.3 (Homo sapiens, UniProt Q9NY46)
Construct: expressed in transfected cells; host or cells: HEK293
Sequence (Q9NY46 whole entry): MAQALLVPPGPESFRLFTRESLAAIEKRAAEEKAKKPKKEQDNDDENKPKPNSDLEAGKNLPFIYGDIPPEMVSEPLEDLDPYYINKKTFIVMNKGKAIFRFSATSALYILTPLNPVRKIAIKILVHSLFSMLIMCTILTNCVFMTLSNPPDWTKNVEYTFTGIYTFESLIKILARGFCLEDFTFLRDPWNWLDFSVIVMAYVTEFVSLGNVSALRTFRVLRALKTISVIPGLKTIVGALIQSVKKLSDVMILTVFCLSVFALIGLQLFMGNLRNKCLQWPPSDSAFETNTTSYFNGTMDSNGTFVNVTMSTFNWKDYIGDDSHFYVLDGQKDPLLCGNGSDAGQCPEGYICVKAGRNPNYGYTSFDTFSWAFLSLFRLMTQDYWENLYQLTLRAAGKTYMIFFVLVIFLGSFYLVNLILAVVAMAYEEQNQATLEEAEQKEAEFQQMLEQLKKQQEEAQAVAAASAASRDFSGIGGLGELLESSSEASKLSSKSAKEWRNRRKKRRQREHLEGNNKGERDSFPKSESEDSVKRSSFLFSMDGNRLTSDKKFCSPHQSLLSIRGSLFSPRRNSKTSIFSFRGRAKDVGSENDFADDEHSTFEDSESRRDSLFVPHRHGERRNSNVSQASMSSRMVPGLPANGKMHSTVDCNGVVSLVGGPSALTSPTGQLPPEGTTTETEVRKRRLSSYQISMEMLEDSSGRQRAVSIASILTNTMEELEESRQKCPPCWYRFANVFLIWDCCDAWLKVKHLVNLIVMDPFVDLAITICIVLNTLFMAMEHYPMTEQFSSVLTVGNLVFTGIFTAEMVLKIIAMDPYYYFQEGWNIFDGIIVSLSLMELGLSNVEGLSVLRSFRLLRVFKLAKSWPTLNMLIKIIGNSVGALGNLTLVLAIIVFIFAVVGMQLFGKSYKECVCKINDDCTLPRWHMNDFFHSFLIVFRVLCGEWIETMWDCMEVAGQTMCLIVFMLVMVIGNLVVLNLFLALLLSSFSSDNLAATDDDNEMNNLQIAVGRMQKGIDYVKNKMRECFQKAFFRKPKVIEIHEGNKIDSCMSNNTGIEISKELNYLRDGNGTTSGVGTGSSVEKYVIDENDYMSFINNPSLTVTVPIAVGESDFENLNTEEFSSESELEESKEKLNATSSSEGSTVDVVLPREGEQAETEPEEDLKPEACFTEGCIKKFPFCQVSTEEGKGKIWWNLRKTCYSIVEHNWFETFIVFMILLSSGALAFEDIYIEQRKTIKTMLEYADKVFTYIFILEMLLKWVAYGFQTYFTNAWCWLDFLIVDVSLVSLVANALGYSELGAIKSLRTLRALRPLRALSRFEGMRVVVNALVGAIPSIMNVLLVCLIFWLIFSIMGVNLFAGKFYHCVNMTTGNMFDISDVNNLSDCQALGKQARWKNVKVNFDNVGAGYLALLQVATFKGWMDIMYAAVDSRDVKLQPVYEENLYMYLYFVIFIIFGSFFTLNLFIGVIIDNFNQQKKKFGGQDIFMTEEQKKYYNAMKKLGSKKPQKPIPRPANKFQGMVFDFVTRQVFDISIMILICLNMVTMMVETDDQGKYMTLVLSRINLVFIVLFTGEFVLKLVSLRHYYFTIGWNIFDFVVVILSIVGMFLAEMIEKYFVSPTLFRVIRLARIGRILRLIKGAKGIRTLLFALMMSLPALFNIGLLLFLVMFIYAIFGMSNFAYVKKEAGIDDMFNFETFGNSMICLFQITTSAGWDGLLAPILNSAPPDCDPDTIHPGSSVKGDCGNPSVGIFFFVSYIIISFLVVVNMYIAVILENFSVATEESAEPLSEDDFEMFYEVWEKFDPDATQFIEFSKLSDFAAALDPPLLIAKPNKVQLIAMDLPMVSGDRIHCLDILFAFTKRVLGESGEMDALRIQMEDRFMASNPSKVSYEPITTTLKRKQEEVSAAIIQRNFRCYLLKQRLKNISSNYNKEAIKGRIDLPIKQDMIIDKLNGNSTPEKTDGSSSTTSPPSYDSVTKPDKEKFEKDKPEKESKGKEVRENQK
Assay: VIPR optical membrane potential assay with electrical stimulation, NaV1.3
Assay type: cell-based
Conditions: Table 9, NaV 1.3 receptors

Worked cases, IC50 given:
Molecule	Assay system	IC50
COc1cc2c(cc1OC)CN(C(=O)c1cnc(N3CCOCC3)nc1-c1ccccc1F)CC2 [compound 144]	NaV1.3 (Homo sapiens, UniProt Q9NY46)	> 10 µM
COc1cccc(CN(C(=O)c2cnc(N3CCc4ccccc4C3)nc2-c2ccccc2F)C(C)C)c1 [compound 22]	NaV1.3 (Homo sapiens, UniProt Q9NY46)	2 to 10 µM
O=C(c1cnc(N2CCOCC2)nc1-c1ccccc1F)N(Cc1cnc2ccccc2c1)C1CC1 [compound 99]	NaV1.3 (Homo sapiens, UniProt Q9NY46)	> 10 µM
Cc1cccc(-c2nc(N3CCOCC3)ncc2C(=O)N(Cc2ccccc2)C(C)C)c1 [compound 240]	NaV1.3 (Homo sapiens, UniProt Q9NY46)	> 10 µM
COc1cccc(N(C(=O)c2cnc(N3CCOCC3)nc2-c2ccccc2F)C2CC2)c1 [compound 183]	NaV1.3 (Homo sapiens, UniProt Q9NY46)	> 10 µM
CC1CCN(C(=O)c2cnc(N3CCOCC3)nc2-c2ccccc2F)CC1 [compound 337]	NaV1.3 (Homo sapiens, UniProt Q9NY46)	> 10 µM
CC(C)N(Cc1ccccc1)C(=O)c1cnc(Nc2cccc(O)c2)nc1-c1ccccc1F [compound 132]	NaV1.3 (Homo sapiens, UniProt Q9NY46)	> 10 µM
CCN(Cc1cccc(C)c1)C(=O)c1cnc(NCCNC(C)=O)nc1-c1ccccc1F [compound 308]	NaV1.3 (Homo sapiens, UniProt Q9NY46)	> 10 µM
CC(=O)NCCNC(=O)c1cnc(N2CCCC2)nc1-c1ccc(-c2ccccc2)cc1 [compound 281]	NaV1.3 (Homo sapiens, UniProt Q9NY46)	> 10 µM
COc1cccc(CN(C(=O)c2cnc(N3CCC4CCCCC4C3)nc2-c2ccccc2F)C(C)C)c1 (stereo not drawn) [compound 162]	NaV1.3 (Homo sapiens, UniProt Q9NY46)	< 2 µM

Lab entry: NaV1.3 (Homo sapiens, UniProt Q9NY46) assay, molecule O=C(c1cnc(NCC2CCCCC2)nc1-c1ccccc1F)N1CCOCC1 [compound 351] , IC50 = > 10 µM

Lab entry: NaV1.3 (Homo sapiens, UniProt Q9NY46) assay, molecule CC(C)N(C(=O)c1cnc(N2CCC3CCCCC3C2)nc1-c1ccccc1F)c1cccc(C#N)c1 (stereo not drawn) [compound 54] , IC50 = 2 to 10 µM

Lab entry: NaV1.3 (Homo sapiens, UniProt Q9NY46) assay, molecule O=C(c1cnc(N2CCOCC2)nc1-c1ccccc1F)N(Cc1cccc(-c2ccncc2)c1)C1CC1 [compound 60] , IC50 = > 10 µM

Lab entry: NaV1.3 (Homo sapiens, UniProt Q9NY46) assay, molecule O=C(c1cnc(NCc2ccccc2C(F)(F)F)nc1-c1ccccc1F)N1CCOCC1 [compound 252] , IC50 = > 10 µM

* * *

Entries and their IC50 values follow.
Molecular target: NaV1.3 (Homo sapiens)
Construct: expressed in transfected cells; host or cells: HEK293
Assay: VIPR optical membrane potential assay with electrical stimulation, NaV1.3
Format: cell-based
Details: Table 9, NaV 1.3 receptors

Compound	IC50
CC(C)N(Cc1ccccc1)C(=O)c1cnc(Nc2cccc(C(N)=O)c2)nc1-c1ccccc1F	> 10 µM

Lab entry: NaV1.3 (Homo sapiens) assay, compound C=CCN(CC=C)c1ncc(C(=O)N(Cc2ccccc2)C(C)C)c(-c2ccccc2F)n1 , IC50 = 2 to 10 µM

Lab entry: NaV1.3 (Homo sapiens) assay, compound CC(C)N(Cc1ccc(C(C)(C)C)cc1)C(=O)c1cnc(N2CCSCC2)nc1-c1ccccc1F , IC50 = 2 to 10 µM

Lab entry: NaV1.3 (Homo sapiens) assay, compound COc1cccc(N(C(=O)c2cnc(N3CCC4CCCCC4C3)nc2-c2ccccc2F)C2CCCC2)c1 (stereo not drawn) , IC50 = > 10 µM

Lab entry: NaV1.3 (Homo sapiens) assay, compound COc1cccc(N(C(=O)c2cnc(N3CCCCC3)nc2-c2ccccc2F)C2CCC2)c1 , IC50 = 2 to 10 µM

Lab entry: NaV1.3 (Homo sapiens) assay, compound COc1cccc(N(C(=O)c2c(C)nc(N3CCCCC3)nc2-c2ccccc2F)C(C)C)c1 , IC50 = 2 to 10 µM

Lab entry: NaV1.3 (Homo sapiens) assay, compound CCN(C)c1ncc(C(=O)NCCOC)c(-c2ccc(C#N)cc2)n1 , IC50 = > 10 µM

Lab entry: NaV1.3 (Homo sapiens) assay, compound CC(C)N(Cc1ccc(N2CCCC2)cc1)C(=O)c1cnc(N2CCCCC2)nc1-c1ccccc1Cl , IC50 = > 10 µM

Lab entry: NaV1.3 (Homo sapiens) assay, compound CC(C)N(C(=O)c1cnc(N2CCC3CCCCC3C2)nc1-c1ccccc1F)c1ccccc1 (stereo not drawn) , IC50 = 2 to 10 µM

Lab entry: NaV1.3 (Homo sapiens) assay, compound COc1ccccc1CCNC(=O)c1cnc(N2CCOCC2)nc1-c1ccccc1F , IC50 = > 10 µM

* * *

Target: NaV1.3 (Homo sapiens, UniProt Q9NY46)
Construct: expressed in transfected cells; host or cells: HEK293
Experiment: VIPR optical membrane potential assay with electrical stimulation, NaV1.3
Type: cell-based
Settings: Table 9, NaV 1.3 receptors
Readout kind: IC50

Compound	Observed measurement
CC1CN(c2ncc(C(=O)N(Cc3ccccc3)C(C)C)c(-c3ccccc3F)n2)CC(C)O1 (stereo not drawn)	> 10 µM

Summary for this compound, CC(C)N(Cc1ccccc1)C(=O)c1cnc(N2CCOCC2)nc1-c1cc(F)cc(F)c1 : IC50 is 2 to 10 µM

Summary for this compound, O=C(NC(CN1CCCC1)c1ccccc1)c1cnc(N2CCOCC2)nc1-c1ccccc1F (stereo not drawn) : IC50 is > 10 µM

Summary for this compound, CCC(COC)N(Cc1ccccc1)C(=O)c1cnc(N2CCOCC2)nc1-c1ccccc1F (stereo not drawn) : IC50 is 2 to 10 µM

Summary for this compound, CCN(C)C(=O)c1cnc(N2CCCC(C(N)=O)C2)nc1-c1ccc(C#N)cc1 (stereo not drawn) : IC50 is > 10 µM

* * *

Molecular target: NaV1.8 (Homo sapiens)
Test: VIPR optical membrane potential assay, NaV1.8 (other subtypes in an analogous mode)
Assay type: cell-based
Conditions: Table 9, NaV 1.8 receptors
Procedure: Antagonist properties of test compounds were assessed as follows. Cells expressing the NaV of interest were placed into microtiter plates. […] The cells were stimulated with either chemical or electrical means to evoke a NaV dependent membrane potential change from unblocked channels, which was detected and measured with trans-membrane potential-sensitive dyes. Antagonists were detected as a decreased membrane potential response to the stimulus. […]
pIC50: −log10 of the molar value.
Entries and their pIC50 values follow.

Worked cases, pIC50 given:
Molecule	Assay system	pIC50
Cc1nc(N2CCOCC2)nc(-c2ccccc2F)c1C(=O)N(Cc1ccccc1)C1CCCC1	NaV1.8 (Homo sapiens)	5.00 to 5.70
COc1cccc(N(C(=O)c2cnc(N3CCN(C)CC3)nc2-c2ccccc2F)C(C)C)c1	NaV1.8 (Homo sapiens)	< 5.00
O=C(c1cnc(N2CCCCC2)nc1-c1ccccc1F)N(Cc1ccccc1)C1CCCC1	NaV1.8 (Homo sapiens)	< 5.00
CC(C)N(C(=O)c1cnc(N2CCCCC2)nc1-c1ccccc1F)c1ccc2c(c1)OCCO2	NaV1.8 (Homo sapiens)	< 5.00
COc1cccc(N(C(=O)c2cnc(N3CCCCC3)nc2-c2ccccc2Cl)C2CCCCC2)c1	NaV1.8 (Homo sapiens)	< 5.00
N#CCCN(Cc1ccccc1)C(=O)c1cnc(N2CCOCC2)nc1-c1ccccc1F	NaV1.8 (Homo sapiens)	< 5.00
O=C(NC1CC1c1ccccc1)c1cnc(N2CCOCC2)nc1-c1ccccc1F (stereo not drawn)	NaV1.8 (Homo sapiens)	< 5.00
CC(C)N(C(=O)c1cnc(N2CCN(C)CC2)nc1-c1ccccc1F)c1ccccc1	NaV1.8 (Homo sapiens)	< 5.00

Summary for this molecule, COc1ccc(CN(C(=O)c2cnc(N3CCCCC3)nc2-c2ccccc2Cl)C2CC2)cc1 : pIC50 is < 5.00

Summary for this molecule, CC(C)N(C(=O)c1cnc(N2CCC3CCCCC3C2)nc1-c1ccccc1F)c1cccc(C#N)c1 (stereo not drawn) : pIC50 is < 5.00

Summary for this molecule, COc1cccc(CN(C(=O)c2cnc(N3CCOCC3)nc2-c2ccccc2F)C(C)C)c1 : pIC50 is < 5.00

Summary for this molecule, COc1cc2c(cc1OC)CN(C(=O)c1cnc(N3CCOCC3)nc1-c1ccccc1F)CC2 : pIC50 is < 5.00
